// reported MIC Assay Other Strains: S. pneumoniae for each item listed
System: Streptococcus pneumoniae
assay.details: MIC assay, S. pneumoniae
Type: cell-based
condition.context: CAMHB + 5% LHB, 24 h
Number only, in µM; omit the unit.

Cn1cc(NC(=O)c2cc(NC(=O)CN)cn2C)cc1C(=O)NCCCN(CCCNC(=O)c1cc(NC(=O)c2cc(NC(=O)CN)cn2C)cn1C)C(=O)OCc1ccccc1 [Compound 42] = 1.4

Q. Complete the entry with MIC Assay Other Strains: S. pneumoniae for Cn1cc(NC(=O)c2cc(NC(=O)CN)cn2C)cc1C(=O)NCCCN(CCCNC(=O)c1cc(NC(=O)c2cc(NC(=O)CN)cn2C)cn1C)CCCNC(=O)c1cc(NC(=O)c2cc(NC(=O)CN)cn2C)cn1C [Compound 74]
A. 2.8

Cited source for all entries: patent US20020198254A1
